Tgt: PDC L293P (Pseudomonas aeruginosa, UniProt P24735, L320P)
Experiment Description: Steady-state kinetics of purified β-lactamase
Assay Conditions: ratio of kcat/Km (fold change in catalytic efficiency)
Quantity Kind: Ratio for PDC L293P/PDC-1
// return a plain number; no unit text

O=C(Cc1cccs1)N[C@@H]1C(=O)N2C(C(=O)O)=C(/C=C/c3ccc([N+](=O)[O-])cc3[N+](=O)[O-])CS[C@H]12 : 1.80
CC(C)(O/N=C(\C(=O)N[C@@H]1C(=O)N2C(C(=O)[O-])=C(C[N+]3(CCNC(=O)c4ccc(O)c(O)c4Cl)CCCC3)CS[C@H]12)c1csc(N)n1)C(=O)O : 33.75

// field: Ratio for PDC L293P/PDC-1; key: Cn1c(N)c(NC(=O)NCCN)c[n+]1CC1=C(C(=O)O)N2C(=O)[C@@H](NC(=O)/C(=N\OC(C)(C)C(=O)[O-])c3nsc(N)n3)[C@H]2SC1 ; value = 3.69

Query CC(C)(O/N=C(\C(=O)N[C@@H]1C(=O)N2C(C(=O)[O-])=C(C[n+]3ccccc3)CS[C@H]12)c1csc(N)n1)C(=O)O yields Ratio for PDC L293P/PDC-1 of 8.67

The reported value for CO/N=C(\C(=O)N[C@@H]1C(=O)N2C(C(=O)[O-])=C(C[N+]3(C)CCCC3)CS[C@H]12)c1csc(N)n1 [FEP, cefepime] in terms of Ratio for PDC L293P/PDC-1 is 39.29

====

Tgt: PDC L293P (Pseudomonas aeruginosa, UniProt P24735, L320P)
Experiment Description: Steady-state kinetics of purified β-lactamase
Assay Conditions: PDC L293P; direct hydrolysis at substrate concentration at least three times the Km; 10 mM PBS, pH 7.4, room temperature
Quantity Kind: kcat (s⁻¹)
State just the number; it will be interpreted in s⁻¹.

Use these answered entries as a reference point.
Cn1c(N)c(NC(=O)NCCN)c[n+]1CC1=C(C(=O)O)N2C(=O)[C@@H](NC(=O)/C(=N\OC(C)(C)C(=O)[O-])c3nsc(N)n3)[C@H]2SC1 : 0.051
CO/N=C(\C(=O)N[C@@H]1C(=O)N2C(C(=O)[O-])=C(C[N+]3(C)CCCC3)CS[C@H]12)c1csc(N)n1 [FEP, cefepime] : 0.189
CC(C)(O/N=C(\C(=O)N[C@@H]1C(=O)N2C(C(=O)[O-])=C(C[n+]3ccccc3)CS[C@H]12)c1csc(N)n1)C(=O)O : 0.0110

The compound O=C(Cc1cccs1)N[C@@H]1C(=O)N2C(C(=O)O)=C(/C=C/c3ccc([N+](=O)[O-])cc3[N+](=O)[O-])CS[C@H]12 on PDC L293P (Pseudomonas aeruginosa, UniProt P24735, L320P): kcat was 18.77

====

Tgt: PDC E219K (Pseudomonas aeruginosa, UniProt P24735, E247K)
Experiment Description: Steady-state kinetics of purified β-lactamase
Assay Conditions: PDC E219K; antibiotics: determined as Ki app with nitrocefin as reporter substrate; 10 mM PBS, pH 7.4, room temperature
Quantity Kind: log10 of Km (log10 of the value in µM)
Each number you see is log10 of Km, and the unit inside the log is µM.

CO/N=C(\C(=O)N[C@@H]1C(=O)N2C(C(=O)[O-])=C(C[N+]3(C)CCCC3)CS[C@H]12)c1csc(N)n1 [FEP, cefepime] : 1.97
CC(C)(O/N=C(\C(=O)N[C@@H]1C(=O)N2C(C(=O)[O-])=C(C[n+]3ccccc3)CS[C@H]12)c1csc(N)n1)C(=O)O : 2.47
O=C(Cc1cccs1)N[C@@H]1C(=O)N2C(C(=O)O)=C(/C=C/c3ccc([N+](=O)[O-])cc3[N+](=O)[O-])CS[C@H]12 : 1.38
CC(C)(O/N=C(\C(=O)N[C@@H]1C(=O)N2C(C(=O)[O-])=C(C[N+]3(CCNC(=O)c4ccc(O)c(O)c4Cl)CCCC3)CS[C@H]12)c1csc(N)n1)C(=O)O : 2.67

# evaluate next
Record Cn1c(N)c(NC(=O)NCCN)c[n+]1CC1=C(C(=O)O)N2C(=O)[C@@H](NC(=O)/C(=N\OC(C)(C)C(=O)[O-])c3nsc(N)n3)[C@H]2SC1 . Reported log10 of Km: 2.42
